- Test system: proteins that co-immunoprecipitated with DUX4-CTD constructs expressed in MB135 myoblasts
- PROTOCOL: LC-MS of proteins co-immunoprecipitated with DUX4-CTD (Table 1) and western validation
- Format: binding, human
- COND: sum over all samples
- Excerpt: As an unbiased method to identify proteins that interact with the C-terminal region of DUX4, liquid chromatography mass spectroscopy (LC-MS) was used to identify proteins that co-immunoprecipitated with DUX4-CTD constructs expressed in MB135 myoblasts. In the first experiment, MB135iDUX4-CTD cells were used, either untreated, treated with doxycycline alone, or with both doxycycline and IFNG. […]
Each item that follows carries a reported SUM of PSMS.
When you answer, write just the number.

Please review the entries below; each comes with its answer.
>  <MOLECULE>
Q96MG2 (protein, UniProt Q96MG2 1-331, looked up, full-length) MSMTTRAWEELDGGLGSCQALEDHSALAETQEDRASATPRLADSGSVPHDSQVAEGPSVDTRPKKMEKEPAARGTPGTGKERLKAGASPRSVPARKKAQTAPPLQPPPPPPALSEELPWGDLSLNKCLVLASLVALLGSAFQLCRDAVPGEAALQARVPEPWVPPSSAPREPSSPLPKFEAQAPPSAPPAPRAEAEVRPKIPGSREAAENDEEEPGEATGEAVREDRVTLADRGPKERPRREGKPRKEKPRKEERPKKERPRKEERPRAAREPREALPQRWESREGGHRPWARDSRDAEPRKKQAWVSPRRPDEEQRPGSRQKLRAGKGRD

>  <SUM of PSMS>
18

$$$$
>  <MOLECULE>
P05141 (protein, UniProt P05141 1-298, looked up, full-length) MTDAAVSFAKDFLAGGVAAAISKTAVAPIERVKLLLQVQHASKQITADKQYKGIIDCVVRIPKEQGVLSFWRGNLANVIRYFPTQALNFAFKDKYKQIFLGGVDKRTQFWLYFAGNLASGGAAGATSLCFVYPLDFARTRLAADVGKAGAEREFRGLGDCLVKIYKSDGIKGLYQGFNVSVQGIIIYRAAYFGIYDTAKGMLPDPKNTHIVISWMIAQTVTAVAGLTSYPFDTVRRRMMMQSGRKGTDIMYTGTLDCWRKIARDEGGKAFFKGAWSNVLRGMGGAFVLVLYDEIKKYT

>  <SUM of PSMS>
9

$$$$
>  <MOLECULE>
Q00325 (protein, UniProt Q00325 1-362, looked up, full-length) MFSSVAHLARANPFNTPHLQLVHDGLGDLRSSSPGPTGQPRRPRNLAAAAVEEQYSCDYGSGRFFILCGLGGIISCGTTHTALVPLDLVKCRMQVDPQKYKGIFNGFSVTLKEDGVRGLAKGWAPTFLGYSMQGLCKFGFYEVFKVLYSNMLGEENTYLWRTSLYLAASASAEFFADIALAPMEAAKVRIQTQPGYANTLRDAAPKMYKEEGLKAFYKGVAPLWMRQIPYTMMKFACFERTVEALYKFVVPKPRSECSKPEQLVVTFVAGYIAGVFCAIVSHPADSVVSVLNKEKGSSASLVLKRLGFKGVWKGLFARIIMIGTLTALQWFIYDSVKVYFRLPRPPPPEMPESLKKKLGLTQ

>  <SUM of PSMS>
8

$$$$

Query string: // fetch SUM of PSMS given entry P31947 (protein, UniProt P31947 1-248, looked up, full-length) MERASLIQKAKLAEQAERYEDMAAFMKGAVEKGEELSCEERNLLSVAYKNVVGGQRAAWRVLSSIEQKSNEEGSEEKGPEVREYREKVETELQGVCDTVLGLLDSHLIKEAGDAESRVFYLKMKGDYYRYLAEVATGDDKKRIIDSARSAYQEAMDISKKEMPPTNPIRLGLALNFSVFHYEIANSPEEAISLAKTTFDEAMADLHTLSEDSYKDSTLIMQLLRDNLTLWTADNAGEEGGEAPQEPQS
Result string: 8
